targetOrSystem: 5-HT1A receptor (Rattus norvegicus, UniProt P19327)
Sequence (P19327 1-422): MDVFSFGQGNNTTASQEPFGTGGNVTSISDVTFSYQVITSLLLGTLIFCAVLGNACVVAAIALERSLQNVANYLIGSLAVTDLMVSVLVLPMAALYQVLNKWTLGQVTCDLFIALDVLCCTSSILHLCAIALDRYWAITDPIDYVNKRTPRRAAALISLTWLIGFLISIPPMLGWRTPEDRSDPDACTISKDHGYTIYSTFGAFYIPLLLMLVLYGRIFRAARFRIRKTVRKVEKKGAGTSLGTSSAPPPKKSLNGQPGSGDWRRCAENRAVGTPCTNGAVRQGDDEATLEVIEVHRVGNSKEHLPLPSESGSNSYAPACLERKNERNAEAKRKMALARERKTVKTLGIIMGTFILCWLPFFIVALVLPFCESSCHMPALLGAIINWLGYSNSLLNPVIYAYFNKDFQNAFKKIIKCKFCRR
Where a name gives a salt, the structure may show the parent alone.
measurementName: IC50 (nM)

// worked examples, IC50 included
Enquiry: So what IC50 did CCCN(CCC)[C@H]1Cc2c(-c3ccoc3)ccc3c2[C@@H](CN3)C1 [Example 15] get with 5-HT1A receptor (Rattus norvegicus, UniProt P19327)?
Return: 2.74

Enquiry: Also CCCN(CCC)[C@H]1Cc2c(-c3ccccn3)ccc3c2[C@@H](CN3)C1 [Example 17] ?
Return: 17.3

Enquiry: Also CCCN(CCC)[C@@H]1Cc2c(-c3ccno3)ccc3c2[C@H](CN3)C1 [Example 11, HCl] ?
Return: 2.08

Enquiry: Also CCCN(CCC)[C@H]1Cc2c(-c3ccno3)ccc3c2[C@@H](CN3)C1 [Example 10, HCl] ?
Return: 0.73

P = CCCN(CCC)[C@H]1Cc2c(-c3ccon3)ccc3c2[C@@H](CN3)C1 [Example 8, HCl]
Q = CCCN(CCC)[C@H]1Cc2c(-c3cc[nH]n3)ccc3c2[C@@H](CN3)C1 [Example 6]
Enquiry: Param metric = IC50; output whichever of P , Q has the minimum value. Provide the label of your selected option as the answer.
Return: P

###

targetOrSystem: 5-HT1D receptor
assayExplanation: 5-HT1D receptor in vitro binding ([3H]5-HT, bovine caudate membranes)
recordedConditions: inhibition of [3H]5-HT (1.7-1.9 nM) binding by 50%, 8-OH-DPAT and mesulergine (100 nM each) as masks, pH 7.4, 10 min at 37° C.
Procedure: The affinities of certain of the compounds of Formula 1 at the central 5-HT1D binding sites were determined using a modification of the binding assay described by Heuring and Peroutka, J. Neurosci., 7, 894 (1987). […] The radioactivity trapped by the filters was quantitated by liquid scintillation spectrometry, and specific [^3 H]5-HT binding to the 5-HT1D sites was defined as the difference between [^3 H]5-HT bound in the presence and absence of 10 μM 5-HT. […]
Structures can show the parent of a compound that is named as a salt.
measurementName: IC50 (nM)

Enquiry: Form field: reported IC50 of CCCN(CCC)[C@H]1Cc2c(-c3cccnc3)ccc3c2[C@@H](CN3)C1
Return: 40.3

a = CCCN(CCC)[C@@H]1Cc2c(-c3ccno3)ccc3c2[C@H](CN3)C1 [Example 11, HCl]
b = CCCN(CCC)C1Cc2c(-c3ccno3)ccc3c2C(CN3)C1 (racemic)
c = CCCN(CCC)[C@H]1Cc2c(-c3ccno3)ccc3c2[C@@H](CN3)C1 [Example 10, HCl]
Enquiry: List items by IC50 in falling order. Could you list the labels in the order requested?
Return: a, b, c
(a: 1380 nM, b: 23.6 nM, c: 11.2 nM)

1 = CCCN(CCC)[C@@H]1Cc2c(-c3ccco3)ccc3c2[C@H](CN3)C1
2 = CCCN(CCC)[C@H]1Cc2c(-c3cc[nH]n3)ccc3c2[C@@H](CN3)C1
Enquiry: Param metric = IC50; output whichever of 1 , 2 has the minimum value. Provide the label of your selected option as the answer.
Return: 2

a = CCCN(CCC)[C@H]1Cc2c(-c3ccccn3)ccc3c2[C@@H](CN3)C1
b = CCCN(CCC)[C@H]1Cc2c(-c3ccon3)ccc3c2[C@@H](CN3)C1 [Example 8, HCl]
Enquiry: Param metric = IC50; output whichever of a , b has the minimum value. Provide the label of your selected option as the answer.
Return: b

1 = CCCN(CCC)[C@H]1Cc2c(-c3ccoc3)ccc3c2[C@@H](CN3)C1
2 = CCCN(CCC)[C@H]1Cc2c(-c3ccco3)ccc3c2[C@@H](CN3)C1
Enquiry: From the recorded data, which exceeds the other in IC50: 1 or 2 ? Provide the label of your selected option as the answer.
Return: 2
(2: 43.1 nM, 1: 19.4 nM)
